# procedure.details: in vitro
# details: human, Caco-2, Caco-2 (membrane permeability)
*1 amine or outer side, *2 acyl side, *3 side chain or, on linkers, in order; H or OH if unused. Where a SMILES comes first, the peptide text is derived from it. Bridges are numbered along the chain shown (N, C = ends). [ ]: non-standard residue; d: D form. The star is where a group is joined. Phe(4-CF3) = N[C@@H](Cc1ccc(C(F)(F)F)cc1)C(=O)O; X12 = O=C([C@H](CCCC(O)C(F)(F)F)N[*:1])[*:2]; NMeF = CN[C@@H](Cc1ccccc1)C(=O)O; NMeGABA = CN(CCCC(=O)[*:2])[*:1]; NMeI = CC[C@H](C)[C@H](NC)C(=O)O; CH2CH(OH)CF3 = OC(C*)C(F)(F)F; NMeL = CN[C@@H](CC(C)C)C(=O)O; NMeV = CN[C@H](C(=O)O)C(C)C; NMeAbu = CC[C@H](NC)C(=O)O; NMeA = CN[C@@H](C)C(=O)O; Piperidide = C1CCN(*)CC1; NBuGly = CCCCNCC(=O)O; Sar = CNCC(=O)O; tBu = CC(C)(C)*
endpoint: Papp (×10⁻⁶ cm/s)

molecule="CC[C@H](C)[C@@H]1NC(=O)[C@H](CC(C)C)N(C)C(=O)[C@H](CCCC(O)C(F)(F)F)NC(=O)[C@H](Cc2ccccc2)N(C)C(=O)CN(C)C(=O)C[C@@H](C(=O)N2CCCCC2)NC(=O)[C@H](CC(C)C)N(C)C(=O)[C@H](COC(C)(C)C)NC(=O)[C@H](CC(C)C)N(C)C(=O)[C@H](Cc2ccccc2)N(C)C(=O)CN(C)C1=O (stereo partly drawn) [Compound D17] ([Sar][NMeF][X12][NMeL]I[Sar][NMeF][NMeL]S(tBu)[NMeL]D-Piperidide; lactam N-11)" readout_value=1
molecule="CC[C@H]1C(=O)N(C)[C@@H](Cc2ccccc2)C(=O)N[C@@H](CC(C)C)C(=O)N(C)[C@@H](Cc2ccccc2)C(=O)N(C)[C@@H](C(C)C)C(=O)N[C@@H](COCC(O)C(F)(F)F)C(=O)N(C)CC(=O)N(C)[C@@H](CC(C)C)C(=O)N[C@H](C(=O)N2CCCCC2)CC(=O)N(C)[C@@H](C)C(=O)N[C@@H](CC(C)C)C(=O)N1C (stereo partly drawn) [Compound C14] ([NMeA]L[NMeAbu][NMeF]L[NMeF][NMeV]S(CH2CH(OH)CF3)[Sar][NMeL]D-Piperidide; lactam N-11)" readout_value=2
molecule="CC[C@H](C)[C@@H]1NC(=O)[C@H](CC(C)C)N(C)C(=O)CCCN(C)C(=O)C[C@@H](C(=O)N2CCCCC2)NC(=O)[C@H](CC(C)C)N(C)C(=O)[C@H](CC(C)C)N(C)C(=O)[C@H]([C@@H](C)O)NC(=O)[C@H](CC(C)C)N(C)C(=O)[C@H](COCC(O)C(F)(F)F)NC(=O)[C@H](Cc2ccccc2)N(C)C(=O)[C@H](Cc2ccccc2)N(C)C1=O (stereo partly drawn) [Compound C03] ([NMeGABA][NMeL]I[NMeF][NMeF]S(CH2CH(OH)CF3)[NMeL]T[NMeL][NMeL]D-Piperidide; lactam N-11)" readout_value=0.5
molecule="CCCCN1CC(=O)N(C)[C@@H](Cc2ccccc2)C(=O)N[C@@H](CCC(=O)NC)C(=O)N(C)[C@@H](CC(C)C)C(=O)N[C@@H]([C@@H](C)O)C(=O)N(CCCC)CC(=O)N(C)[C@@H](Cc2ccccc2)C(=O)N(C)[C@@H](CC(C)C)C(=O)N[C@@H](CC(C)C)C(=O)N(C)[C@@H]([C@@H](C)CC)C(=O)N[C@H](C(=O)N2CCCCC2)CC1=O [Compound J05] ([NBuGly][NMeF]E(NHMe)[NMeL]T[NBuGly][NMeF][NMeL]L[NMeI]D-Piperidide; lactam N-11)" readout_value=0.052
molecule="CCCCN1CC(=O)N(C)[C@@H](CC(C)C)C(=O)N[C@@H](CCC(=O)NC)C(=O)N(C)[C@@H](Cc2ccccc2)C(=O)N(C)[C@@H]([C@@H](C)CC)C(=O)N[C@H](C(=O)N2CCCCC2)CC(=O)N[C@H](CC(C)C)C(=O)N(C)[C@@H](CC(C)C)C(=O)N[C@@H](Cc2ccc(C(F)(F)F)cc2)C(=O)N(C)[C@@H](CC(C)C)C(=O)N[C@@H]([C@@H](C)O)C1=O [Compound J02] ([dL][NMeL][Phe(4-CF3)][NMeL]T[NBuGly][NMeL]E(NHMe)[NMeF][NMeI]D-Piperidide; lactam N-11)" readout_value=0.004
